# ASSAY DETAILS: chemical genetic growth profiling, strain panel (AID 1159580);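 further: tested at 20 µM; growth read once vehicle control cultures reached saturation at 30 °C; 1 = growth at the plate median or of vehicle wells; lower values mean less growth of the strain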
# CONDITIONS USED: S. cerevisiae deletion strains, growth OD, locus YNL183C, strain NPR1, stronger effect = lower value
Screen size: about 5,500 compounds; about 2,000 (36%) were called active. Roughly 18% stayed inconclusive and do not appear here. Some of the results follow.
Overview of reported normalized growth across a group of compounds:

Reference set, count: 2
1. CCCCOC(=O)c1ccc(N)cc1: 0.934 (inactive)
2. COc1c(OC)c2occc2c2oc(=O)ccc12: 0.921 (inactive)

Problem: Look up normalized growth of "Cc1ccc(C)c(OCCCC(C)(C)C(=O)O)c1" and report it.
Solution: 0.843 (inactive)

Problem: Quickly give me recorded normalized growth for CC1(C)O[C@@H]2CC3C4CCC5=CC(=O)CCC5(C)C4(F)C(O)CC3(C)[C@]2(C(=O)CCl)O1 (some centres undefined)
Solution: 0.972 (inactive)

* * *

# ASSAY DETAILS: chemical genetic growth profiling, strain panel (AID 1159580);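 further: tested at 20 µM; growth read once vehicle control cultures reached saturation at 30 °C; 1 = growth at the plate median or of vehicle wells; lower values mean less growth of the strain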
# CONDITIONS USED: S. cerevisiae deletion strains, growth OD, locus YIR030C, strain dcg1
The whole screen tested about 5,500 compounds, of which about 2,000 (36%) were called active. About 18% were inconclusive and are not listed. Rule as the data show it: active = normalized growth mostly below about 0.91 (no sharp cut-off); inconclusive = no clear call, values can overlap the other calls; inactive = mostly above about 0.92. Some of the results follow.
Result category, one only: active, inactive

Reference set, count: 3
1. CC(C)NNC(=O)c1ccncc1: inactive
2. Cc1cccc(C(=O)O)c1O: inactive
3. CC(=O)N[C@@H](CS)C(=O)O: inactive

Problem: Name the outcome recorded for "CCOC(=O)[C@H](CCc1ccccc1)N[C@@H](C)C(=O)N1[C@H](C(=O)O)C[C@@H]2CCC[C@@H]21" in the assay.
Solution: inactive

Problem: Can you look up the reported call for C[N+]1(C)C2CC(OC(=O)[C@@H](CO)c3ccccc3)CC1C1OC12 (some centres not stated) for me?
Solution: inactive

Problem: Dear colleague, could you share the recorded outcome for C=C1C(=O)OC2CC1C(OC(C)=O)C/C(C)=C/CC/C(C)=C/CC[C@]2(C)O (some centres not stated) when you have a moment?
Solution: inactive

Problem: I would be grateful if you could indicate the recorded call for CCCNC1CCc2nc(N)sc2C1 (configuration not stated) .
Solution: inactive

Problem: Could you check what this test reported for "NC[C@@H]1CC[C@@H](N)[C@@H](O[C@H]2[C@H](O)[C@@H](O[C@H]3O[C@H](CO)[C@@H](O)[C@H](N)[C@H]3O)[C@H](N)C[C@@H]2N)O1" ?
Solution: inactive

Problem: How was "Oc1ccc(Cl)cc1Cc1cc(Cl)ccc1O" classified in this test?
Solution: active

* * *

# ASSAY DETAILS: chemical genetic growth profiling, strain panel (AID 1159580);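 further: tested at 20 µM; growth read once vehicle control cultures reached saturation at 30 °C; 1 = growth at the plate median or of vehicle wells; lower values mean less growth of the strain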
# CONDITIONS USED: S. cerevisiae deletion strains, growth OD, locus YOR061W, strain CKA2, stronger effect = lower value
About 2,000 (36%) of roughly 5,500 compounds were called active. Not shown: some 18% with an inconclusive outcome. Some of the results follow.
EXPERIMENTAL READOUT: normalized growth
Give the figure by itself; no unit, no explanation.

Example molecules with recorded normalized growth:
1. CC1(C)OC(=O)C(=Cc2cccn2-c2ccc(OC(F)(F)F)cc2)C(=O)O1: 0.916
2. CC1(C)OC(=O)C(=Cc2cccn2-c2ccc(C(F)(F)F)cc2)C(=O)O1: 0.818

Next, consider the following molecule.
Problem: Retrieve normalized growth measured for "Cc1ccc(NS(=O)(=O)c2ccc(-c3csc(C)n3)s2)c(C)c1" and print it.
Solution: 0.84

FYI, the data here is from PubChem BioAssay AID1159580.
